tested on: Strain resistant to isoniazid; type: cell-based, mycobacteria of tuberculosis; conditions: taken from patients, Sverdlovsk Regional SRI of Phthisiopulmonology 1998
readout: Inhibiting level (µg/mL)
Give the quantity in µg/mL, number only.

compound	test_target	value_reported
O=C(NN=Cc1c(OCCOc2ccc3ccccc3c2C=NNC(=O)c2ccccc2)ccc2ccccc12)c1ccccc1	Strain resistant to isoniazid	5.0
NNC(=O)c1ccncc1 [Isoniazid, hydrazide of isonicotinic acid, reference compound]	Strain resistant to isoniazid	5.0

Consider the record given below.
GET /values?readout=Inhibiting level&item= `O=Cc1ccc(Cl)cc1OCCOc1cc(Cl)ccc1C=O` 5.0

---

tested on: Strain resistant to isoniazid; type: cell-based, mycobacteria of tuberculosis; conditions: taken from patients, Sverdlovsk Regional SRI of Phthisiopulmonology 1998
Inhibiting level by entry:

Here are 2 compounds together with their reported answers.
compound	value_reported
[H]/N=C(/N)N[C@H]1[C@H](O)[C@@H](O)[C@H](O[C@@H]2O[C@@H](C)[C@](O)(C=O)[C@H]2O[C@@H]2O[C@@H](CO)[C@H](O)[C@@H](O)[C@@H]2NC)[C@@H](N/C(N)=N\[H])[C@@H]1O [Streptomycin, reference compound]	>50.0 µg/mL
O=C(NN=Cc1ccccc1OCCCCOCCCCOc1ccccc1C=NNC(=O)c1cccnc1)c1cccnc1	>5.0 µg/mL

Item `COc1cc(C=NNC(=O)c2ccccc2)ccc1OCCOc1ccc(C=NNC(=O)c2ccccc2)cc1OC` has what recorded Inhibiting level? >5.0 µg/mL
